Target: hMAO-B (Homo sapiens, UniProt P27338)
Construct: purchased Sigma-Aldrich
Sequence (P27338 whole entry): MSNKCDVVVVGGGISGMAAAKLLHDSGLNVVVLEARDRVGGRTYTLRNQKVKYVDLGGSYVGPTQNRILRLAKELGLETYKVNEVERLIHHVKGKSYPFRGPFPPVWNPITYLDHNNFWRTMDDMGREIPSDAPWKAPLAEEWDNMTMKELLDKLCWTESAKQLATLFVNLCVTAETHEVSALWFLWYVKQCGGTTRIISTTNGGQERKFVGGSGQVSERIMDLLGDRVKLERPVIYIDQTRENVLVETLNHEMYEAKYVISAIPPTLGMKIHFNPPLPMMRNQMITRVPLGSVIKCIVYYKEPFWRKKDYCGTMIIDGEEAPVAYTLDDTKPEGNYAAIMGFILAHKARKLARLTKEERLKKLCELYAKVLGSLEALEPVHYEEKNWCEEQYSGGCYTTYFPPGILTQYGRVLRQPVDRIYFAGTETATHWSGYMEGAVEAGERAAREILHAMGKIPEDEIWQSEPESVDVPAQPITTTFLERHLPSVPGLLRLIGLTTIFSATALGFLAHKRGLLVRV
Experiment: hMAO-B inhibition, kynuramine fluorescence assay
Format: biochemical
Conditions: recombinant human MAO-B, kynuramine substrate; mean ± SD of three independent experiments

Molecule: COC(=O)CNC(=O)N[C@@H](C)C(=O)Nc1ccc2c(C)cc(=O)oc2c1 [Compound 16, MeO-Gly-CO-Ala-AMC]
Measured on: hMAO-B (Homo sapiens, UniProt P27338)
Operator symbol: >
IC50, µM: 100
--
Molecule: COCc1cc(=O)oc2cc(NC(=O)[C@H](C)NC(C)=O)ccc12 [Compound 7, Ac-Ala-AMMC]
Measured on: hMAO-B (Homo sapiens, UniProt P27338)
Operator symbol: =
IC50, µM: 45.6
--
Molecule: Cc1cc(=O)oc2cc(NC(=O)[C@H](C)NC(=O)OCc3ccccc3)ccc12 [Compound 1, Z-Ala-AMC]
Measured on: hMAO-B (Homo sapiens, UniProt P27338)
Operator symbol: >
IC50, µM: 100
--
Molecule: CC(=O)N[C@@H](C)C(=O)Nc1ccc2c(C)cc(=O)oc2c1 [Compound 6, Ac-Ala-AMC]
Measured on: hMAO-B (Homo sapiens, UniProt P27338)
Operator symbol: >
IC50, µM: 100
--
Molecule: COC(=O)[C@H](C)NC(=O)N[C@@H](C)C(=O)Nc1ccc2c(C)cc(=O)oc2c1 [Compound 17, MeO-Ala-CO-Ala-AMC]
Measured on: hMAO-B (Homo sapiens, UniProt P27338)
Operator symbol: =
IC50, µM: 58.6
